Quick list: folding stability dG unfold per entry.
- method_notes: folding stability dG unfold (combined trypsin and chymotrypsin); higher = more stable
Give a bare numeral; the unit kcal/mol is implied.

Some solved entries appear below for comparison.
SAGGMPKPVTLPAVIELGAGPAIAVEEFPETGKLVFVFPPTHRIFVFDPNGKLVAEVDVPPDVPVSAVSAGG [r13_507_TrMRF] = 0.931
SAGDALKDLAPDVEITPSSFPFAFPPSRPVLAASIVAHPDNTITVFLTEVHPDGGARVLVYTLHLSDKSAGG [r19_125_TrMRF] = 3.05

Could you now look at the following sequence, please?
Form field: reported folding stability dG unfold of SMIEELSDEEKVALAKELAEEIKKAREGGKPEEIPELIKRLKEVLEAASPPVQEEVLALIKEIKIPPKELSA [r9_182_JUSTAS]
2.23
